Molecular target: SUMO-activating enzyme (Homo sapiens)
Sequence (Q9UBE0 whole entry): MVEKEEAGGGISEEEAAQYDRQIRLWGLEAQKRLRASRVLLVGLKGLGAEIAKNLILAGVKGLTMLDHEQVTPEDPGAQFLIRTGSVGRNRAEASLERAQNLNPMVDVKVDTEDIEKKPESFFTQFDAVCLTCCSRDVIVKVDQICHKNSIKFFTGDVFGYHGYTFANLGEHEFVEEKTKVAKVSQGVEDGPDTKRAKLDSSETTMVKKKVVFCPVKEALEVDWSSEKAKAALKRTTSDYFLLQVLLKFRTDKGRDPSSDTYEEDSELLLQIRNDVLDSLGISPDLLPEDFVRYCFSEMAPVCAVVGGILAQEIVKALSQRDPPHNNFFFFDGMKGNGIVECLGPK
Sequence (Q9UBT2 whole entry): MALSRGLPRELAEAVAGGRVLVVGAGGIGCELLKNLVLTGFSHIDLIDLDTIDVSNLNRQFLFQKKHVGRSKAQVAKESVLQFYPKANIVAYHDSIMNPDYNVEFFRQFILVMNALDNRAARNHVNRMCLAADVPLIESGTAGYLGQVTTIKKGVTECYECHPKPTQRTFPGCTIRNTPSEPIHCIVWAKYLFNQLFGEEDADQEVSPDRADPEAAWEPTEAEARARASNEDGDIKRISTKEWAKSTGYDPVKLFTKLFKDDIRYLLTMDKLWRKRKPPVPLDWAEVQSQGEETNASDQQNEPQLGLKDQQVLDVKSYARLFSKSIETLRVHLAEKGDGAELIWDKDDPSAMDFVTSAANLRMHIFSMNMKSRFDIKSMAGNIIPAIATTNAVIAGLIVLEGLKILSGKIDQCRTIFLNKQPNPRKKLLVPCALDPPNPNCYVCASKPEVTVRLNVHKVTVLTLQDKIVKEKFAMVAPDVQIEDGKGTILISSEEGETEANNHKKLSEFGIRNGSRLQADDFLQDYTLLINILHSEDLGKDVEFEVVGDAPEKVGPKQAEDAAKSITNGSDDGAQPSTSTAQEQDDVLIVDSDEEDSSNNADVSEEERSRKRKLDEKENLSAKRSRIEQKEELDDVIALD
Assay: Inhibition of recombinant human SAE1/UBA2 expressed in Escherichia coli assessed as reduction in transfer of […] to UBE2I enzyme
Parameter: IC50 (µM)
Quick reminder: number only, in µM, skip the unit.

Find the recorded IC50 belonging to CCOc1cccc(F)c1C#Cc1cn([C@@H]2O[C@H](CNS(N)(=O)=O)[C@@H](O)[C@H]2O)c2ncnc(N)c12 and report it.
1.28

====

Molecular target: SUMO-activating enzyme (Homo sapiens)
Test: Inhibition of SAE1/UBA2 in human HCT-116 cells assessed as reduction in Ubc9-SUMO level incubated for 24 hrs by immunoblot analysis
Assay type: cell-based
Parameter: pIC50
Scale for pIC50: -log10 of concentration given in mol/L; no unit attached.

State its pIC50 on SUMO-activating enzyme (Homo sapiens): NS(=O)(=O)OC[C@@H]1C[C@@H](n2ccc3c(N[C@H]4CCc5ccccc54)ncnc32)C[C@@H]1O
5.09

Values compiled from ChEMBL document CHEMBL5126531.
